Each recorded value in this set is attributed to the supplement of paper PMC10567573.

B1: ANKRD17 (parent)
chain: EVLRRLTSSVSCALDEAAAALTRM

Variants of: B1
Assay: protein stability index of a GFP-peptide fusion (GPS, HEK-293T) (PSI 1-6); higher = more stable;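 note: lentivirally expressed fusions sorted by FACS into six bins by GFP to DsRed ratio, PSI derived from sequencing read proportions per bin multiplied by bin number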
Settings: c terminus: a fixed tail appended
Quick reference for protein stability index among some variants
I only need the number, thanks.

Example entries and their recorded answers appear below.
Primary Sequence	protein stability index
EVLRRLTSSVSCAVDEAAAALTRM [L14V]	1.77
EVLRRLTSWVSCALDEAAAALTRM [S9W]	2.63
EELRRLTSSVSCALDEAAAALTRM [V2E]	2.21
EVLRRLTSSVSCALDEAAAALTRW [M24W]	3.27
EVLRRLTSSVSCALDELAAALTRM [A17L]	2.34
EVLRRLTSAVSCALDEAAAALTRM [S9A]	2.11

Query: State, in one line, measured protein stability index of EVLRRLTSSESCALDEAAAALTRM [V10E]
Response: 1.81

Query: Input EVLRRLTSSVSCALDEAIAALTRM [A18I] , output reported protein stability index.
Response: 2.33

Query: Please give the documented protein stability index of EVLRHLTSSVSCALDEAAAALTRM [R5H]
Response: 2.23

Query: Quick one: give measured protein stability index for LVLRRLTSSVSCALDEAAAALTRM [E1L]
Response: 1.8

Query: Give the measured protein stability index for PVLRRLTSSVSCALDEAAAALTRM [E1P]
Response: 2.48

Query: Could you please provide reported protein stability index for EVLRRLTSSVSCALDEAAAALQRM [T22Q] ? Thanks!
Response: 3

Query: Provide one value: measured protein stability index of FVLRRLTSSVSCALDEAAAALTRM [E1F]
Response: 1.73
